# PROTOCOL NOTES: Antiplatelet activity in human platelet-rich plasma assessed as inhibition of collagen-induced aggregation at 100 uM incubated for 5 mins prior to collagen-challenge measured for 3 mins by turbidrometric analysis relative to control
# Assay type: functional
Would you mind labelling by inhibition at 100 µM? At or over 50% is 1, under is 0.

// known answers, use as guide
{"COMPOUND": "O=C(/C=C/c1cn(-c2ccccc2)nc1-c1ccncc1)NC1CCCCC1", "LABEL CLASS": 1}
{"COMPOUND": "O=C(/C=C/c1cn(-c2ccccc2)nc1-c1ccncc1)N1CCN(c2ccc(C(F)(F)F)cc2)CC1", "LABEL CLASS": 0}
{"COMPOUND": "O=C(/C=C/c1cn(-c2ccccc2)nc1-c1ccncc1)N1CCN(c2ccncc2)CC1", "LABEL CLASS": 1}
{"COMPOUND": "O=C(/C=C/c1cn(-c2ccccc2)nc1-c1ccncc1)N1CCN(c2ncccn2)CC1", "LABEL CLASS": 1}
{"COMPOUND": "O=C(/C=C/c1cn(-c2ccccc2)nc1-c1ccncc1)N1CCN(C(=O)C2CCCO2)CC1 (stereo not drawn)", "LABEL CLASS": 1}
{"COMPOUND": "CCOc1ccccc1N1CCN(C(=O)/C=C/c2cn(-c3ccccc3)nc2-c2ccncc2)CC1", "LABEL CLASS": 0}

Next item in the queue.
Answer whether inhibition at 100 µM of O=C(/C=C/c1cn(-c2ccccc2)nc1-c1ccncc1)NCc1ccccc1 is greater than or equal to 50%.
1

###

# Test system: Platelet
# PROTOCOL NOTES: Antiplatelet activity in human platelet-rich plasma assessed as inhibition of arachidonic acid-induced aggregation at 100 uM incubated for 5 mins prior to arachidonic acid-challenge measured for 3 mins by turbidrometric analysis relative to control
# Assay type: functional
Active and inactive are the calls of the source. No cut-off for these calls is given here.
// classify into active, inactive

// known answers, use as guide
{"MOLECULE": "COc1ccc(CNC(=O)/C=C/c2cn(-c3ccccc3)nc2-c2ccncc2)cc1", "LABEL CLASS": "inactive"}
{"MOLECULE": "O=C(/C=C/c1cn(-c2ccccc2)nc1-c1ccncc1)N1CCN(c2ccccc2)CC1", "LABEL CLASS": "inactive"}
{"MOLECULE": "COc1ccc(N2CCN(C(=O)/C=C/c3cn(-c4ccccc4)nc3-c3ccncc3)CC2)c(OC)c1OC", "LABEL CLASS": "inactive"}
{"MOLECULE": "O=C(/C=C/c1cn(-c2ccccc2)nc1-c1ccncc1)N1CCN(c2ccc(C(F)(F)F)cc2)CC1", "LABEL CLASS": "inactive"}
{"MOLECULE": "O=C(/C=C/c1cn(-c2ccccc2)nc1-c1ccncc1)NC1CC1", "LABEL CLASS": "inactive"}
{"MOLECULE": "O=C(/C=C/c1cn(-c2ccccc2)nc1-c1ccncc1)N1CCN(C(=O)C2CCCO2)CC1 (stereo not given)", "LABEL CLASS": "inactive"}

Hi team, can someone confirm the assay call for CCOc1ccccc1N1CCN(C(=O)/C=C/c2cn(-c3ccccc3)nc2-c2ccncc2)CC1 ?
inactive

Hi team, can someone confirm the assay call for O=C(/C=C/c1cn(-c2ccccc2)nc1-c1ccncc1)N1CCC(Cc2ccccc2)CC1 ?
inactive

Hi team, can someone confirm the assay call for O=C(/C=C/c1cn(-c2ccccc2)nc1-c1ccncc1)N1CCCCC1 ?
active

Hi team, can someone confirm the assay call for Cc1ccc(N2CCN(C(=O)/C=C/c3cn(-c4ccccc4)nc3-c3ccncc3)CC2)cc1 ?
inactive

Hi team, can someone confirm the assay call for O=C(/C=C/c1cn(-c2ccccc2)nc1-c1ccncc1)N1CCN(c2ccc(Cl)cc2)CC1 ?
inactive

Hi team, can someone confirm the assay call for O=C(/C=C/c1cn(-c2ccccc2)nc1-c1ccncc1)N1CCN(CCOCCO)CC1 ?
inactive

Hi team, can someone confirm the assay call for O=C(/C=C/c1cn(-c2ccccc2)nc1-c1ccncc1)N1CCN(c2ncccn2)CC1 ?
inactive

Hi team, can someone confirm the assay call for O=C(/C=C/c1cn(-c2ccccc2)nc1-c1ccncc1)N1CCN(C(=O)c2ccco2)CC1 ?
inactive

Hi team, can someone confirm the assay call for O=C(/C=C/c1cn(-c2ccccc2)nc1-c1ccncc1)N1CCN(c2ccncc2)CC1 ?
inactive
